Numbers sourced from the RNAGym collection of RNA variant scans (doi:10.1126/science.aae0568).

Recorded yeast fitness values for a group of variants are listed next.
B1: tRNA (parent)
chain: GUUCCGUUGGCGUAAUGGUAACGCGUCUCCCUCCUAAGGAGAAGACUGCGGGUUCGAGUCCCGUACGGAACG

Variants of: B1
measurement-notes: yeast fitness relative to wild type (ratio to wild type); higher = fitter; tRNA-Arg(CCU), competitive growth, 37 C, YPD
This sample holds only a part of the variants without activity.
Just the number, please.

Given the variant GUUCCGUUGGCGUAAUGGUAACGCGUCUCCCUCCUAAGGCGAAGACUGUGGGUUCGAGUCCCGUACGGCACG [A40C C49U A69C] , what is its reported yeast fitness? 0.592

Next variant up: GUUCCGUUGGCGUAGUGGUAACGCGUCUCCCUCCUAAGGAGAAGACUGCGGGUUCAAGUCCCGUCCGGAACG [A15G G56A A65C] 0.619

Entry GUUACGUUGGCGUAAUGGUAACGCGUCUCCCUCCUAAGGAGAAGACUGCGGGUUCGAGUCCCGUACGGAACG [C4A] please 0.998

And what about the variant GUUCGGUUGGCGUAAUGGUAACGCAUCUCCCUCCUAAGGAGAAGACUGCGGGUUCGAGUCCCGUACGUAACG [C5G G25A G68U] ? 0.633

And the next one, GUUCCGUUGGCGUAAUGGUAACGCGUCUCCGUCCUAAGGAGUAGACUGCGGGUUCGAGUCCUGUACGGAACG [C31G A42U C62U] ? 0.742
